test system: Jurkat; assay: Cytotoxicity against human Jurkat cells assessed as induction of cell death after 48 hrs by MTT assay; assay type: functional, cell-based
Param label: returns rule met when EC50 < 7 µM, returns rule not met otherwise, including exact equality.

Past entries and their recorded results:
COMPOUND	CATEGORY
CC(C)CC(=O)c1c(O)cc(O)c(C(CC(C)C)C2=C(O)C(C)(C)C(=O)C(C)(C)C2=O)c1O (stereo unspecified)	rule not met
CC(C)C(=O)c1c2c(c(O)c3c1OC1=C(C(=O)C(C)(C)C(=O)C1(C)C)C3C(C)C)C(C(C)C)C1=C(O2)C(C)(C)C(=O)C(C)(C)C1=O (stereo unspecified)	rule not met
CCCCCC(=O)c1c(O)c(C(C2=C(O)C(C)(C)C(=O)C(C)(C)C2=O)C(C)C)c(O)c2c1OC1=C(C(=O)C(C)(C)C(=O)C1(C)C)C2C(C)C (stereo unspecified)	rule met
CCCCCC(=O)c1c(O)cc(O)c2c1OC1=C(C(=O)C(C)(C)C(=O)C1(C)C)C2C(C)C (stereo unspecified)	rule not met
CCCCCC(=O)c1c(O)c(C(C2=C(O)CC(C)(C)CC2=O)C(C)C)c(O)c(C(C2=C(O)CC(C)(C)CC2=O)C(C)C)c1O (stereo unspecified)	rule met
CC(C)C(=O)c1c(O)cc(O)c2c1OC1=C(C(=O)C(C)(C)C(=O)C1(C)C)[C@@H]2C(C)C	rule not met
CCCCCC(=O)c1c(O)c(C(C2=C(O)c3ccccc3C2=O)c2ccccc2)c(O)c(C(C2=C(O)c3ccccc3C2=O)c2ccccc2)c1O (stereo unspecified)	rule not met
CC(C)C(C1=C(O)C(C)(C)C(=O)C(C)(C)C1=O)c1c(O)c(C(=O)c2ccccc2)c(O)c(C(C2=C(O)C(C)(C)C(=O)C(C)(C)C2=O)C(C)C)c1O (stereo unspecified)	rule not met
CCCCCC(=O)c1c(O)c(C(CC(C)C)C2=C(O)CC(C)(C)CC2=O)c(O)c(C(CC(C)C)C2=C(O)CC(C)(C)CC2=O)c1O (stereo unspecified)	rule not met
CC(C)CC(C1=C(O)C(C)(C)C(=O)C(C)(C)C1=O)c1c(O)c(C(=O)C(C)C)c(O)c(C(CC(C)C)C2=C(O)C(C)(C)C(=O)C(C)(C)C2=O)c1O (stereo unspecified)	rule not met

Query string: Regarding O=C1C(C(c2ccccc2)c2c(O)c(C(=O)c3ccccc3)c(O)c(C(C3=C(O)c4ccccc4C3=O)c3ccccc3)c2O)=C(O)c2ccccc21 (stereo unspecified) , kindly confirm whether its EC50 is beneath 7 µM.
Result string: rule not met

Query string: Problem: For the compound CCCCCC(=O)c1c(O)c(C(CC(C)C)C2=C(O)C(C)(C)C(=O)C(C)(C)C2=O)c(O)c(C(CC(C)C)C2=C(O)C(C)(C)C(=O)C(C)(C)C2=O)c1O (stereo unspecified) , is EC50 under 7 µM?
Result string: rule not met

Query string: EC50 under 7 µM? Item: CCCCCC(=O)c1c(O)c(C(C2=C(O)c3ccccc3C2=O)C(C)C)c(O)c(C(C2=C(O)c3ccccc3C2=O)C(C)C)c1O (stereo unspecified)
Result string: rule not met

Query string: Find out if reported EC50 for CC(C)C(=O)c1c(O)c(C(C2=C(O)c3ccccc3C2=O)c2ccccc2)c(O)c(C(C2=C(O)c3ccccc3C2=O)c2ccccc2)c1O (stereo unspecified) is less than 7 µM
Result string: rule not met

Query string: Below 7 µM on EC50? Entry CC(C)C(=O)c1c(O)c([C@@H](C2=C(O)C(C)(C)C(=O)C(C)(C)C2=O)C(C)C)c(O)c2c1OC1=C(C(=O)C(C)(C)C(=O)C1(C)C)[C@@H]2C(C)C
Result string: rule met

Query string: Quick check: does CCCCCC(=O)c1c(O)c([C@H](C2=C(O)C(C)(C)C(=O)C(C)(C)C2=O)C(C)C)c(O)c([C@H](C2=C(O)C(C)(C)C(=O)C(C)(C)C2=O)C(C)C)c1O [MYRTUCOMMULONE F] have EC50 under 7 µM?
Result string: rule met

* * *

Target: Prostaglandin E synthase (Homo sapiens, UniProt O14684)
Sequence (O14684 whole entry): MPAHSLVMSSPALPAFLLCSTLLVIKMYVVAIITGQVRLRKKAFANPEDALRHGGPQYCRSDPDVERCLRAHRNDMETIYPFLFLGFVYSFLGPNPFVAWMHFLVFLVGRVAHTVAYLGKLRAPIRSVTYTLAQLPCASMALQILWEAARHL
Experiment: Inhibition of mPGES-1 in microsomal membranes isolated from interleukin-1beta-stimulated human A549 cells using PGH2 as substrate assessed as PGE2 formation preincubated for 15 mins followed by substrate addition measured after 1 min by RP-HPLC analysis
pIC50: −log10 of the molar value.
Would you mind labelling by pIC50? At or over 6 is YES, under is NO.

Record excerpt, results attached:
COMPOUND	CATEGORY
CCCCCC(=O)c1c(O)c(C(CC(C)C)C2=C(O)C(C)(C)C(=O)C(C)(C)C2=O)c(O)c(C(CC(C)C)C2=C(O)C(C)(C)C(=O)C(C)(C)C2=O)c1O (centres undefined)	YES
CCCCCC(=O)c1c(O)cc(O)c2c1OC1=C(C(=O)C(C)(C)C(=O)C1(C)C)C2C(C)C (centres undefined)	NO
CC(C)C(=O)c1c(O)c(C(C2=C(O)CC(C)(C)CC2=O)C(C)C)c(O)c(C(C2=C(O)CC(C)(C)CC2=O)C(C)C)c1O (centres undefined)	NO
CCCCCC(=O)c1c(O)c([C@H](C2=C(O)C(C)(C)C(=O)C(C)(C)C2=O)C(C)C)c(O)c([C@H](C2=C(O)C(C)(C)C(=O)C(C)(C)C2=O)C(C)C)c1O	YES

Turning now to a further compound:
Query string: pIC50 >= 6 for CC(C)C(=O)c1c2c(c(O)c3c1OC1=C(C(=O)C(C)(C)C(=O)C1(C)C)C3C(C)C)C(C(C)C)C1=C(O2)C(C)(C)C(=O)C(C)(C)C1=O (centres undefined) ?
Result string: NO

* * *

target: UniProt P09917; assay: Inhibition of recombinant human 5-LO expressed in Escherichia coli BL21 using arachidonic acid as substrate assessed as formation of all-trans isomer of LTB4, 5-H(P)ETE preincubated for 5 to 10 mins followed by substrate addition measured after 10 mins by HPLC analysis
Below: a set of entries, each annotated with reported IC50.
Value expressed in µM; do not type the unit.

These recorded examples may help you get a feel for the data.
COMPOUND	EXPERIMENTAL_RESULT
CCCCCC(=O)c1c(O)c(C(CC(C)C)C2=C(O)CC(C)(C)CC2=O)c(O)c(C(CC(C)C)C2=C(O)CC(C)(C)CC2=O)c1O (stereo not drawn)	2.9
CCCCCC(=O)c1c(O)c([C@@H](CC(C)C)C2=C(O)C(C)(C)C(=O)C(C)(C)C2=O)c(O)c([C@H](C2=C(O)C(C)(C)C(=O)C(C)(C)C2=O)C(C)C)c1O	6.6

Here is another compound to look at.
Query string: What does the record list as IC50 for CCCCCC(=O)c1c(O)c(C(C2=C(O)c3ccccc3C2=O)C(C)C)c(O)c(C(C2=C(O)c3ccccc3C2=O)C(C)C)c1O (stereo not drawn) ?
Result string: 1.7

* * *

target: Polyunsaturated fatty acid 5-lipoxygenase (Homo sapiens, UniProt P09917); assay: Inhibition of 5-LO in ionophore A23187-stimulated human PMNL using arachidonic acid as substrate assessed as formation of LTB4, 5(S),12(S)-DiHETE, 5-H(p)ETE preincubated for 15 mins followed by substrate and ionophore addition measured after 10 mins by HPLC analysis
Sequence (P09917 whole entry): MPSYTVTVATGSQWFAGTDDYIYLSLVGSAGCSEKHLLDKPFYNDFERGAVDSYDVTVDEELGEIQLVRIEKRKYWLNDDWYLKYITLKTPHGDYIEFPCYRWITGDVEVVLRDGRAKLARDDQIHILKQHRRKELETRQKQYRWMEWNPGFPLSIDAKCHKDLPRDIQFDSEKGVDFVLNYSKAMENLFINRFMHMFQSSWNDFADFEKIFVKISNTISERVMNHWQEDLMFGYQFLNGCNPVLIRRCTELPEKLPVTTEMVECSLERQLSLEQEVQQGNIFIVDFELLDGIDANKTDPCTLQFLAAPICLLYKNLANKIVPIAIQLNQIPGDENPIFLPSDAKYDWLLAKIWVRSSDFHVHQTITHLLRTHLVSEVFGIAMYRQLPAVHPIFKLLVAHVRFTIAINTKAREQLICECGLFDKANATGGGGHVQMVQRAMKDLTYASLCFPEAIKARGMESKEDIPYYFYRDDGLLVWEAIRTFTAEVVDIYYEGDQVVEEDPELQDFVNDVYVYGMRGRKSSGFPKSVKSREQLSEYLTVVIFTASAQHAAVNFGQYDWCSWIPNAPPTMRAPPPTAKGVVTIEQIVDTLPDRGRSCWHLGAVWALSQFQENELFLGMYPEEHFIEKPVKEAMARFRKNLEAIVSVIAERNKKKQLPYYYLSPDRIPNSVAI
Mark Fulfilled only when IC50 stays strictly below 2000 nM. Values equal to the cut-off are Not fulfilled.

Answered examples (5):
COMPOUND	CATEGORY
CCCCCC(=O)c1c(O)cc(O)c(C(C2=C(O)C(C)(C)C(=O)C(C)(C)C2=O)C(C)C)c1O (configuration not stated)	Fulfilled
CC(C)C(=O)c1c(O)cc(O)c2c1OC1=C(C(=O)C(C)(C)C(=O)C1(C)C)[C@@H]2C(C)C	Fulfilled
CCCCCC(=O)c1c(O)c(C(CC(C)C)C2=C(O)C(C)(C)C(=O)C(C)(C)C2=O)c(O)c(C(CC(C)C)C2=C(O)C(C)(C)C(=O)C(C)(C)C2=O)c1O (configuration not stated)	Fulfilled
CCCCCC(=O)c1c(O)c(C(C2=C(O)CC(C)(C)CC2=O)C(C)C)c(O)c(C(C2=C(O)CC(C)(C)CC2=O)C(C)C)c1O (configuration not stated)	Not fulfilled
CC(C)C(=O)c1c(O)cc(O)c(C(C2=C(O)C(C)(C)C(=O)C(C)(C)C2=O)C(C)C)c1O (configuration not stated)	Not fulfilled

Query string: Quick check: IC50 of CCCCCC(=O)c1c(O)c([C@H](C2=C(O)C(C)(C)C(=O)C(C)(C)C2=O)C(C)C)c(O)c([C@H](C2=C(O)C(C)(C)C(=O)C(C)(C)C2=O)C(C)C)c1O under 2000 nM?
Result string: Not fulfilled

Query string: Below 2000 nM on IC50? Entry CC(C)C(C1=C(O)CC(C)(C)CC1=O)c1c(O)c(C(=O)c2ccccc2)c(O)c(C(C2=C(O)CC(C)(C)CC2=O)C(C)C)c1O (configuration not stated)
Result string: Not fulfilled

The reported measurements were obtained from ChEMBL document CHEMBL3608292.
